Target: cAMP-dependent protein kinase catalytic subunit gamma (Homo sapiens, UniProt P22612); note: in the data inactive means no Kd found up to 30 µM
Sequence (P22612 whole entry): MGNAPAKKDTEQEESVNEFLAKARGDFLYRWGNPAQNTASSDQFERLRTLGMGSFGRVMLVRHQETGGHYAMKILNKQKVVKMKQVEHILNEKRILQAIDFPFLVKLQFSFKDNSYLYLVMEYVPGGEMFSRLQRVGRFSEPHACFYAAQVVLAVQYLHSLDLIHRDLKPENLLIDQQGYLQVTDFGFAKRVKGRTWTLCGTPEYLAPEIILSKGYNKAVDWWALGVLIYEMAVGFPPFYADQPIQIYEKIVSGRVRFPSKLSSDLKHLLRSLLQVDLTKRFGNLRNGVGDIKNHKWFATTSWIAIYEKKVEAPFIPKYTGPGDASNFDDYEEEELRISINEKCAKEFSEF
Calls of active or inactive are those of the source.
Your answer must be one of the following: TRUE = active, FALSE = inactive

compound	assigned-class
C=CC(=O)Nc1cc2c(Nc3ccc(F)c(Cl)c3)ncnc2cc1C#CC(C)(C)N1CCN(C)CC1 [AV-412 FREE BASE]	FALSE
C#Cc1cccc(Nc2ncnc3cc(OC)c(OCCCCCCC(=O)NO)cc23)c1	FALSE
CN1C/C=C/CCOc2cccc(c2)-c2ccnc(n2)Nc2cccc(c2)C1	FALSE
C=CC(=O)N1CCC[C@H](n2c(=O)n(-c3ccc(Oc4ccccc4)cc3)c3c(N)ncnc32)C1	FALSE
Cn1cc(-c2cnc3ccc4ccc(CS(=O)(=O)NCc5ccccn5)cc4c(=O)c3c2)cn1	FALSE

Consider now this further compound.
What was the test verdict on "NC1(c2ccc(-c3nc4ccn5c(=O)[nH]nc5c4cc3-c3ccccc3)cc2)CCC1" ?
FALSE

----------
Listed here: compounds with reported Kd for Cyclin-dependent kinase 6 (Homo sapiens, UniProt Q00534).
Active and inactive are the calls of the source.

Known Kd results, listed for orientation:
compound	experimental-target	Kd
C=CC(=O)Nc1cc2c(Nc3ccc(F)c(Cl)c3)ncnc2cc1C#CC(C)(C)N1CCN(C)CC1 [AV-412 FREE BASE]	Cyclin-dependent kinase 6 (Homo sapiens, UniProt Q00534)	> 30 µM (inactive)
CO[C@H]1C[C@@H]2CC[C@@H](C)[C@@](O)(O2)C(=O)C(=O)N2CCCC[C@H]2C(=O)O[C@H]([C@H](C)C[C@@H]2CC[C@@H](OP(C)(C)=O)[C@H](OC)C2)CC(=O)[C@H](C)/C=C(\C)[C@@H](O)[C@@H](OC)C(=O)[C@H](C)C[C@H](C)/C=C/C=C/C=C/1C [RIDAFOROLIMUS]	Cyclin-dependent kinase 6 (Homo sapiens, UniProt Q00534)	> 30 µM (inactive)

The record that follows has no Kd shown yet.
Consider the compound shown here: NC1(c2ccc(-c3nc4ccn5c(=O)[nH]nc5c4cc3-c3ccccc3)cc2)CCC1 [MK-2206] What is its recorded Kd?
> 30 µM (inactive)

----------
Biological target: Tyrosine-protein kinase HCK (Homo sapiens); note: in the data inactive means no Kd found up to 30 µM
Sequence (P08631 whole entry): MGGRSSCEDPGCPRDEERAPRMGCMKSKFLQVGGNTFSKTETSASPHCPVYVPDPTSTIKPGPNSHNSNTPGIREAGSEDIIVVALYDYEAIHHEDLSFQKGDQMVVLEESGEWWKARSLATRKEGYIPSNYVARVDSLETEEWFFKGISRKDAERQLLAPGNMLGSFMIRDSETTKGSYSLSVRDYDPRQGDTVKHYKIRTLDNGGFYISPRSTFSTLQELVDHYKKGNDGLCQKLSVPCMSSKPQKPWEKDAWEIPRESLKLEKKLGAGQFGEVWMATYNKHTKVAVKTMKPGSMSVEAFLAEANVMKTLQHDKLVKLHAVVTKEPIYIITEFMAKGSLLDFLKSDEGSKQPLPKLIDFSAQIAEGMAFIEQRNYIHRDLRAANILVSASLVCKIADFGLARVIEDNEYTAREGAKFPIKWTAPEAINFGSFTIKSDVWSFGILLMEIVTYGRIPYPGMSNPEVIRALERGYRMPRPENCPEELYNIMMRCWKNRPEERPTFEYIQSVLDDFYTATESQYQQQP
Activity calls are given as the source filed them.
Reported Kd values are given for each entry in this list.

Known Kd results, listed for orientation:
>>> print(df.to_string())
                                   compound      value_measured
0  COc1c(OCCCN2CCOCC2)ccc2c1N=C(NC(=O)c1cnc(N)nc1)N1CCN=C21  > 30 µM (inactive)
1  Cn1cc(-c2cnn3c(N)c(Br)c([C@@H]4CCCNC4)nc23)cn1  > 30 µM (inactive)
2  CNC(=O)c1cccc2cc(Oc3ccnc4cc(OCC5(N)CC5)c(OC)cc34)ccc12  > 30 µM (inactive)
3  Cc1cc(C(=O)NOCCO)c(Nc2ccc(I)cc2F)n(C)c1=O  > 30 µM (inactive)

Consider the compound shown here: "COc1cc2c(Nc3ccc(Cl)c(Cl)c3F)ncnc2cc1OC[C@@H]1C[C@@H]2CN(C)C[C@@H]2C1" What is its recorded Kd?
1.16 µM (active)

Param item: "Cc1cnc(NC(=O)Nc2cc(Br)c(C)cc2OC[C@@H]2CNCCO2)cn1"
> 30 µM (inactive)

Param item: "CC(C)c1cc(CNc2nc(Nc3cc(C4CC4)[nH]n3)cc(N3CCN(C)CC3)n2)on1"
6.39 µM (active)

Param item: "CC(=O)NCC(=O)N1[C@@H]2CC[C@H]1c1ccc(Nc3ncc(C(F)(F)F)c(NC4CCC4)n3)cc12"
> 30 µM (inactive)

Param item: O=c1[nH]ccc2cc(OC3CCNCC3)ccc12 [SAR-407899 FREE BASE]
> 30 µM (inactive)

Param item: C=CC(=O)Nc1cc2c(Nc3ccc(F)c(Cl)c3)ncnc2cc1C#CC(C)(C)N1CCN(C)CC1 [AV-412 FREE BASE]
> 30 µM (inactive)

Param item: "CCn1cc(-c2ccnc3[nH]c(-c4cccc(CN(C)C)c4)cc23)c(-c2ccc(NC(=O)N(C)C)cc2)n1"
> 30 µM (inactive)

Param item: "CN(C[C@@H]1COCCO1)S(=O)(=O)Nc1ccc2ccc3ncc(-c4cnn(C)c4)cc3c(=O)c2c1"
> 30 µM (inactive)
